# System: MDA-MB-453
# Assay Text: drug sensitivity score (DSS), single agent (DSS (weighted AUC score)); higher = more sensitive (stronger viability decrease); extreme values may be limits of the assay
# Test Settings: BLU9931 0 nM; 72 h
Metric Name: drug sensitivity score
# print the numeric value only

get_value(item= Cc1nc(=O)c2cc(CN(C)c3ccc(C(=O)N[C@@H](CCC(=O)O)C(=O)O)s3)ccc2[nH]1 [Raltitrexed] , readout=drug sensitivity score) returns 5.3

Quick note, drug sensitivity score for COc1cc(Nc2ncc3c(n2)-c2ccc(Cl)cc2C(c2c(F)cccc2OC)=NC3)ccc1C(=O)O [Alisertib] landed at 0

Recorded drug sensitivity score (compound Cc1ccc(NS(=O)(=O)c2cccc(C#N)c2)c2[nH]cc(C#N)c12 [E7820] ): 3.3

Notebook: NC(=O)N1CCC(CC(=O)N2CCC([C@H]3c4ncc(Br)cc4CCc4cc(Cl)cc(Br)c43)CC2)CC1 [Lonafarnib] , drug sensitivity score read as 0

The compound CC(C)C[C@H](NC(=O)CNC(=O)c1cc(Cl)ccc1Cl)B(O)O [Ixazomib] showed drug sensitivity score equal to 9.4

Could you now consider this next compound?
Recorded drug sensitivity score (compound CC(C)C[C@H](NC(=O)[C@H](Cc1ccccc1)NC(=O)c1cnccn1)B(O)O [Bortezomib] ): 21.3

---

# Test system: MDA-MB-453
# Assay Text: drug sensitivity score (DSS), single agent (DSS (weighted AUC score)); higher = more sensitive (stronger viability decrease); extreme values may be limits of the assay
# Test Settings: BLU9931 0 nM; 72 h
Decision: drug sensitivity score compared against 2; not below it gives 1, below it gives 0.

Please review the following examples before continuing.
Task: Does `O=C(NOC[C@H](O)CO)c1ccc(F)c(F)c1Nc1ccc(I)cc1F` have a reported drug sensitivity score of at least 2?
Output: 0

Task: Item Cc1cc(Nc2cc(N3CCN(C)CC3)nc(Sc3ccc(NC(=O)C4CC4)cc3)n2)n[nH]1 [Tozasertib] with drug sensitivity score of 2 or above?
Output: 1

Task: Does the reported drug sensitivity score for CC[C@H](NC(=O)[C@H](C)NC)C(=O)N1C[C@@H](O)C[C@H]1Cc1c(-c2[nH]c3cc(F)ccc3c2C[C@@H]2C[C@H](O)CN2C(=O)[C@H](CC)NC(=O)[C@H](C)NC)[nH]c2cc(F)ccc12 [Birinapant] fall at or above the 2 mark?
Output: 1

Task: Decide: drug sensitivity score of COC[C@H](NC(=O)c1cnc(C)s1)C(=O)N[C@@H](COC)C(=O)N[C@@H](Cc1ccccc1)C(=O)[C@@]1(C)CO1 [Oprozomib] >= 2?
Output: 1

Task: Could you please find out whether C[C@]12CC[C@@H]3c4ccc(O)cc4C[C@@H](CCCCCCCCC[S+]([O-])CCCC(F)(F)C(F)(F)F)[C@H]3[C@@H]1CC[C@@H]2O (some centres not stated) [Fulvestrant] has drug sensitivity score that meets 2 or exceeds it?
Output: 0

Task: I'd appreciate it if you could say whether CC(C)(C)c1nc(-c2cccc(NS(=O)(=O)c3c(F)cccc3F)c2F)c(-c2ccnc(N)n2)s1 [Dabrafenib] has drug sensitivity score at least equal to 2.
Output: 0

More entries:
Task: Hi, just wondering whether Cc1ccc(NC(=O)c2ccc(CN3CCN(C)CC3)cc2)cc1Nc1nccc(-c2cccnc2)n1 [Imatinib] shows drug sensitivity score of 2 or higher.
Output: 0
